- Tested on: diabetic male mice (db/db mice)
- assay-notes: blood glucose-lowering effects in mice with hyperglycemic diabetes
- Format: in vivo
- condition-parameters: oral, 1 mg/kg, D0
- Procedure: Effects of PPAR compounds on a blood glucose level were evaluated in 7-week-old diabetic male mice (db/db mice). Blood was collected from caudal veins of the diabetic animals to which the drug was administered once a day for 5 consecutive days, and the blood glucose level was then measured with a blood glucose test meter (ACCU CHEK Active®).
metric-name: Blood glucose D0 (mg/dL)

compound	endpoint-result
O=S(=O)(Nc1cc(Cl)c(Oc2cnc3ccccc3c2)c(Cl)c1)c1ccc(Cl)cc1Cl [INT-131, reference compound]	381
CCO[C@@H](Cc1ccc(OCc2sc(-c3ccc(-c4cc(C(C)(C)C)on4)cc3)cc2C)cc1)C(=O)O [Example 48]	452
CCO[C@@H](Cc1ccc(OCc2sc(-c3ccc(-c4cc(C)no4)cc3)cc2C)cc1)C(=O)O [Example 41]	422
CCO[C@@H](Cc1ccc(OCc2sc(-c3ccc(-c4csc(C)n4)cc3)cc2C)cc1)C(=O)O [Example 21]	482
CCO[C@@H](Cc1ccc(OCc2sc(-c3ccc(-c4cc(COC)on4)cc3)cc2C)cc1)C(=O)O [Example 36]	577

----------
- tgt: Human PPAR-γ (Homo sapiens, UniProt P37231)
- Sequence (P37231 238-503 limits assumed): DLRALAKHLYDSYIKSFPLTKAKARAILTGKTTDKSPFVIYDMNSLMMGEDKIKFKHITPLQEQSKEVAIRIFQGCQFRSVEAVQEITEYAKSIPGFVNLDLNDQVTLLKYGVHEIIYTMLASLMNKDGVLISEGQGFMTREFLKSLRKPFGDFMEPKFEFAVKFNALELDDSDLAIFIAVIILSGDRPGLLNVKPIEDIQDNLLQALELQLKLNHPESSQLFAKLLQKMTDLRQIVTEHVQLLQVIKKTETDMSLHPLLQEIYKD
- assay-notes: transactivation assay (GAL4 chimeric receptor, luciferase) in CV-1 cells
- condition-parameters: CV-1 cells, GAL4 chimeric receptor, 24 hours
pEC50: −log10 of the molar value.

compound	pEC50
CCO[C@@H](Cc1ccc(OCc2sc(-c3ccc(-c4cc(C(=O)NC)no4)cc3)cc2C)cc1)C(=O)O [Example 38]	7.00
CCO[C@@H](Cc1ccc(OCc2sc(-c3ccc(-c4cc(C(C)(C)C)on4)cc3)cc2C)cc1)C(=O)O [Example 48]	8.15
CCO[C@@H](Cc1ccc(OCc2sc(-c3ccc(-c4csnn4)cc3)cc2C)cc1)C(=O)O [Example 24]	7.49
CCO[C@@H](Cc1ccc(OCc2sc(-c3ccc(-c4nc(C)c(C)o4)cc3)cc2C)cc1)C(=O)O [Example 34]	7.74
CCO[C@@H](Cc1ccc(OCc2sc(-c3ccc(-c4cc(COC)no4)cc3)cc2C)cc1)C(=O)O [Example 40]	7.72
CCO[C@@H](Cc1ccc(OCc2sc(-c3ccc(-c4cc(C)no4)cc3)nc2C)cc1)C(=O)O [Example 47]	7.09
CCO[C@@H](Cc1ccc(OCc2sc(-c3ccc(-c4cc(COC)on4)cc3)cc2C)cc1)C(=O)O [Example 36]	7.39
CCO[C@@H](Cc1ccc(OCc2sc(-c3ccc(C4=Nc5ccccc5OC4)cc3)cc2C)cc1)C(=O)O [Example 23]	7.19
CCO[C@@H](Cc1ccc(OCc2sc(-c3ccc(-c4nnn(C(C)C)n4)cc3)cc2C)cc1)C(=O)O [Example 31]	7.00

----------
- tgt: Human PPAR-α (Homo sapiens)
- Construct: expressed in transfected cells; host or cells: CV-1 (CCL-70, ATCC)
- Sequence (Q07869 239-466 limits assumed): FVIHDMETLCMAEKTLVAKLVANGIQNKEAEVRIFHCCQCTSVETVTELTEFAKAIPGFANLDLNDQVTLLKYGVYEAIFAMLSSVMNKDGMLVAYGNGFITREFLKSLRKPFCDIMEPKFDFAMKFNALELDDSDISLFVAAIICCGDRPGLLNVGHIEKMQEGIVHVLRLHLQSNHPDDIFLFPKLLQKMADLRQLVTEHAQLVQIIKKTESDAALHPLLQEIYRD
- assay-notes: transactivation assay (GAL4 chimeric receptor, luciferase) in CV-1 cells
- Format: cell-based
- condition-parameters: CV-1; Relative Response % to maximum effects of the positive control drug; read-out: Max % Human PPAR-α
Reported Emax values are given for each entry in this list.

molecule-smiles	unit-annotation	Emax
CCO[C@@H](Cc1ccc(OCc2sc(-c3ccc(-c4cc(COC)on4)cc3)cc2C)cc1)C(=O)O	%	25
CCO[C@@H](Cc1ccc(OCc2sc(-c3ccc(-c4nnn(COC)n4)cc3)cc2C)cc1)C(=O)O	%	18
CCO[C@@H](Cc1ccc(OCc2sc(-c3ccc(-c4cc(C(C)(C)C)on4)cc3)cc2C)cc1)C(=O)O	%	22
